Cited source for all entries: ChEMBL document CHEMBL3885861

Species: Rattus norvegicus
procedure.text: Open TG-GATES - Regimen: Daily Repeat
Format: toxicity, organism-based, Sprague-Dawley
Parameters: regimen Daily Repeat, gender Male, age 6 weeks
condition.description: in vivo, po, 0 mg/kg, […], tissue Blood, route gavage, dose level Control, time 14 day
The entries below come with measured Plat values attached.
test.readout: Plat (x10_4/uL)

# smiles.representation, test.value
measured = [
    ("CN1C(C(=O)Nc2ccccn2)=C(O)c2sc(Cl)cc2S1(=O)=O", 121.8),
    ("Cc1cccc(Nc2ccccc2C(=O)O)c1C", 108.8),
    ("CCOC(=O)[C@H](CCc1ccccc1)N[C@@H](C)C(=O)N1CCC[C@H]1C(=O)O", 115),
    ("CN(C)[C@@H]1C(O)=C(C(N)=O)C(=O)[C@@]2(O)C(O)=C3C(=O)c4c(O)cccc4[C@@](C)(O)[C@H]3C[C@@H]12", 109.2),
]
